Molecular target: CCK-A receptor (Rattus norvegicus, UniProt P30551)
Sequence (P30551 1-444): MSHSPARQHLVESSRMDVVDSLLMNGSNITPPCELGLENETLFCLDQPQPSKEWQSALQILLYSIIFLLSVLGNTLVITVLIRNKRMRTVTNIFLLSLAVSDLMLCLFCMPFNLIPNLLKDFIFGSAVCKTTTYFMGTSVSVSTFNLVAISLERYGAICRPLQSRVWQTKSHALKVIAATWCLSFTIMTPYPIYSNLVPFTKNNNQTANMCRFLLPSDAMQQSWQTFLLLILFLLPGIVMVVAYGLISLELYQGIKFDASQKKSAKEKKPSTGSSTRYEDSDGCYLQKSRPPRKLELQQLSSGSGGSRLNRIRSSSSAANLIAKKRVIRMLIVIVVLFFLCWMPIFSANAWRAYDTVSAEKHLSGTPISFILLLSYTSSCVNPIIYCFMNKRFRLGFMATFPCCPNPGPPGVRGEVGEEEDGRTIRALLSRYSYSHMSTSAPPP
The molecules listed here are annotated with their IC50.
The reply should be a number in nM, with the unit left off.

Sample answers from the record:
- molecule: "CNc1cccc(NC(=O)N[C@@H]2N=C(c3ccccn3)c3ccccc3N(CC(=O)C(C)(C)C)C2=O)c1 [Example 52]"
  endpoint.unit: "nM"
  IC50: 502
- molecule: "CN(C)c1cccc(NC(=O)NC2N=C(c3nccn3C)c3ccccc3N(CC(=O)C(C)(C)C)C2=O)c1 (racemic) [Example 2]"
  endpoint.unit: "nM"
  IC50: 495
- molecule: "CN(C)c1cccc(NC(=O)NC2N=C(c3nccs3)c3ccccc3N(CC(=O)C(C)(C)C)C2=O)c1 (racemic) [Example 4]"
  endpoint.unit: "nM"
  IC50: 441
- molecule: "Cc1cccc(NC(=O)NC2N=C(c3nccs3)c3ccccc3N(CC(=O)C(C)(C)C)C2=O)c1 (racemic) [Example 3]"
  endpoint.unit: "nM"
  IC50: 433

# evaluate next
CN(C)c1cccc(NC(=O)N[C@@H]2N=C(c3ccccn3)c3ccccc3N(CC(=O)C(C)(C)C)C2=O)c1 [Example 22] yielded IC50 of 113

Taken from patent US5728829A.
